# tested-system: human recombinant A2B adenosine receptors (Homo sapiens)
# Construct: host or cells: HEK-293
# Sequence (P29275 whole entry): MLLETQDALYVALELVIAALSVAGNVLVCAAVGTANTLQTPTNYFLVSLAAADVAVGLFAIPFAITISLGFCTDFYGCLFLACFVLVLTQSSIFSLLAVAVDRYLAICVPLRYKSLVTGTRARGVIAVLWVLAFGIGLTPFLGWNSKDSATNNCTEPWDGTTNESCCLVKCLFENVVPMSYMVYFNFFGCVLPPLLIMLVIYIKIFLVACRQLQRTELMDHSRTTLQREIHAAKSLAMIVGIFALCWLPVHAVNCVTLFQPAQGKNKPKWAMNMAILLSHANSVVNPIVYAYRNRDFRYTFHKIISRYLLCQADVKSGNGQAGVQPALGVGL
# method: Human cloned A2B receptor binding, [3H]-DPCPX, HEK-293 cells
# details: hydrochloride, read-out: hA2B (Ki)
recorded-metric: pKi
As a rule, pKi stands for the negative log10 of the concentration, concentration in M.

Report measured pKi; entry is Cl.Cn1cc2c(nc(NC(=O)Nc3ccncc3)n3nc(-c4ccco4)nc23)n1 [Compound 107, hydrochloride] 6.60

---

# tested-system: rA2A adenosine receptor (Rattus norvegicus)
# Construct: membranes of rat striatum (80-100 μmg of protein/assay); from tissue; host or cells: striatum of male Wistar rats
# Sequence (P30543 whole entry): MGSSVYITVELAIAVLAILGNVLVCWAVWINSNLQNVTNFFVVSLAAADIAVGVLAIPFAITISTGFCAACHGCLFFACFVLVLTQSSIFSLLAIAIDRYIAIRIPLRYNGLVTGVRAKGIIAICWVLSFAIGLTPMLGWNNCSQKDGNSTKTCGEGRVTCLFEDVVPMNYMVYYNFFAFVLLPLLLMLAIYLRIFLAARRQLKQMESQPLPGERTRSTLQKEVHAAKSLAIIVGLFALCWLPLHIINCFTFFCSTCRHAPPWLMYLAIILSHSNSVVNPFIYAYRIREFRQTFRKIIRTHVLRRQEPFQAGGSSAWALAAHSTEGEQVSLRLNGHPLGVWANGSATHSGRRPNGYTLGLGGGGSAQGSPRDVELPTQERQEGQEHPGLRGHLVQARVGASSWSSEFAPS
# method: Rat A2A adenosine receptor binding assay, [3H]SCH58261 displacement, rat striatum membranes
recorded-metric: pKi
As a rule, pKi stands for the negative log10 of the concentration, concentration in M.

Report measured pKi; entry is CCCCn1cc2c(nc(NC(=O)Nc3ccc(OC)cc3)n3nc(-c4ccco4)nc23)n1 6.19

---

# tested-system: rA1 adenosine receptor (Rattus norvegicus)
# Construct: membranes of rat brain (150-200 μg- of protein/assay); from tissue; host or cells: whole brain of male Wistar rats
# Sequence (P25099 whole entry): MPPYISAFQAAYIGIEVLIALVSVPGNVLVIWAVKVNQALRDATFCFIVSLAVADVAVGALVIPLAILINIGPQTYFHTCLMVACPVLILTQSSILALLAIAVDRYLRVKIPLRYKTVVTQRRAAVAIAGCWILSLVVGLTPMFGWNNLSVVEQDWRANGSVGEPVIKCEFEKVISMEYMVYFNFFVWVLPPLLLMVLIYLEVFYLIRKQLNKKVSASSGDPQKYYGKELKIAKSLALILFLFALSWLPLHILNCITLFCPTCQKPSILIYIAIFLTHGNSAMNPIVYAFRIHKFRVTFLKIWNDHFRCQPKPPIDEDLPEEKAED
# method: Rat A1 adenosine receptor binding assay, [3H]CHA displacement, rat brain membranes
recorded-metric: log10 of Ki (log10 of the value in nM)
Hello, just confirming the data are log10 of Ki with units of nM.

Report measured log10 of Ki; entry is COc1ccc(NC(=O)Nc2nc3nn(CCc4ccccc4)cc3c3nc(-c4ccco4)nn23)cc1 [Compound 55] 3.11

Report measured log10 of Ki; entry is CC(C)CCn1cc2c(nc(N)n3nc(-c4ccco4)nc23)n1 [Compound 38] 0.91

Report measured log10 of Ki; entry is CC(C)CCn1cc2c(nc(NC(=O)Cc3ccccc3)n3nc(-c4ccco4)nc23)n1 [Compound 58] 2.57

Report measured log10 of Ki; entry is COc1ccc(NC(=O)Nc2nc3nn(CCC(C)C)cc3c3nc(-c4ccco4)nn23)cc1 [Compound 51] 2.68

Report measured log10 of Ki; entry is O=C(Nc1cccc(Cl)c1)Nc1nc2nn(CCc3ccccc3)cc2c2nc(-c3ccco3)nn12 [Compound 54] 3.02

Report measured log10 of Ki; entry is CC(C)=CCn1cc2c(nc(NC(=O)Nc3cccc(Cl)c3)n3nc(-c4ccco4)nc23)n1 [Compound 52] 3.57

---

# tested-system: human recombinant A2A adenosine receptors (Homo sapiens)
# Construct: expressed in transfected cells; host or cells: CHO
# Sequence (P29274 whole entry): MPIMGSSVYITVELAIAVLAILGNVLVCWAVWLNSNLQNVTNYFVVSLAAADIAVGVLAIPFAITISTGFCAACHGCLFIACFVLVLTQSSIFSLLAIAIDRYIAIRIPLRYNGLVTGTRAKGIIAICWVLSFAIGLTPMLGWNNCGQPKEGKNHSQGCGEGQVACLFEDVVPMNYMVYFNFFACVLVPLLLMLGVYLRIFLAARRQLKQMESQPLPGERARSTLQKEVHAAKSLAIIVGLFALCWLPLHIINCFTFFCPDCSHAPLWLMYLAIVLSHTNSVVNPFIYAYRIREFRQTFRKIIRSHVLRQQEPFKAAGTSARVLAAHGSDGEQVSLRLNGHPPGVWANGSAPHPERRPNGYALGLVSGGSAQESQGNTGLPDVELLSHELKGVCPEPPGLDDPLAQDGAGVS
# method: Human cloned A2A receptor binding, [3H]-SCH58261, CHO cells
# details: hydrochloride, read-out: hA2A (Ki)
recorded-metric: Ki (nM)
Dear colleague, please return just the value in nM, with no unit written.

Report measured Ki; entry is Cl.Cn1cc2c(nc(NC(=O)Nc3ccncc3)n3nc(-c4ccco4)nc23)n1 [Compound 107, hydrochloride] 100

---

Could you please report measured rA2A/hA3 for the items listed next?
# tested-system: human recombinant A3 adenosine receptor (Homo sapiens)
# method: Human cloned A3 adenosine receptor binding assay, [125I]AB-MECA, HEK-293 membranes
# Design: USA; host or cells: HEK-293
# details: selectivity ratio of Ki values

Report measured rA2A/hA3; entry is COc1ccc(NC(=O)Nc2nc3nn(C)cc3c3nc(-c4ccco4)nn23)cc1 >100,000

Report measured rA2A/hA3; entry is Cn1cc2c(nc(NC(=O)Nc3cccc(Cl)c3)n3nc(-c4ccco4)nc23)n1 >45,454

Report measured rA2A/hA3; entry is COc1ccc(NC(=O)Nc2nc3nn(CC=C(C)C)cc3c3nc(-c4ccco4)nn23)cc1 >338

Report measured rA2A/hA3; entry is CCn1cc2c(nc(NC(=O)Nc3ccc(OC)cc3)n3nc(-c4ccco4)nc23)n1 >35,714

---

# tested-system: rA2A adenosine receptor (Rattus norvegicus)
# Construct: membranes of rat striatum (80-100 μmg of protein/assay); from tissue; host or cells: striatum of male Wistar rats
# method: Rat A2A adenosine receptor binding assay, [3H]SCH58261 displacement, rat striatum membranes
# details: rat striatum membranes, [3H]SCH58261; read-out: rA2A (Ki)
pKi: −log10 of the molar value.
Hi, to clarify the labels: YES covers pKi from 6 upward, NO covers anything below 6.

Form field: pKi at least 6? Entry: COc1ccc(NC(=O)Nc2nc3nn(CCCc4ccccc4)cc3c3nc(-c4ccco4)nn23)cc1 NO

Form field: pKi at least 6? Entry: Cn1cc2c(nc(NC(=O)Nc3cccc(Cl)c3)n3nc(-c4ccco4)nc23)n1 NO

Form field: pKi at least 6? Entry: CC(C)=CCn1cc2c(nc(N)n3nc(-c4ccco4)nc23)n1 YES

Form field: pKi at least 6? Entry: CCn1cc2c(nc(N)n3nc(-c4ccco4)nc23)n1 YES

Form field: pKi at least 6? Entry: Cn1cc2c(nc(N)n3nc(-c4ccco4)nc23)n1 YES

Form field: pKi at least 6? Entry: COc1ccc(NC(=O)Nc2nc3nn(C)cc3c3nc(-c4ccco4)nn23)cc1 NO

Form field: pKi at least 6? Entry: O=C(Nc1cccc(Cl)c1)Nc1nc2nn(CCc3ccccc3)cc2c2nc(-c3ccco3)nn12 NO

Form field: pKi at least 6? Entry: CCCCn1cc2c(nc(NC(=O)Nc3cccc(Cl)c3)n3nc(-c4ccco4)nc23)n1 YES

Form field: pKi at least 6? Entry: CCCn1cc2c(nc(N)n3nc(-c4ccco4)nc23)n1 YES

Form field: pKi at least 6? Entry: CCn1cc2c(nc(NC(=O)Nc3cccc(Cl)c3)n3nc(-c4ccco4)nc23)n1 NO

Form field: pKi at least 6? Entry: O=C(Cc1ccccc1)Nc1nc2nn(CCCc3ccccc3)cc2c2nc(-c3ccco3)nn12 YES

Form field: pKi at least 6? Entry: COc1ccc(NC(=O)Nc2nc3nn(CC=C(C)C)cc3c3nc(-c4ccco4)nn23)cc1 NO

Form field: pKi at least 6? Entry: Nc1nc2nn(CCCc3ccccc3)cc2c2nc(-c3ccco3)nn12 YES

Form field: pKi at least 6? Entry: COc1ccc(NC(=O)Nc2nc3nn(CCC(C)C)cc3c3nc(-c4ccco4)nn23)cc1 YES

---

Could you please report measured pKi for the items listed next?
# tested-system: human recombinant A1 adenosine receptor (Homo sapiens, UniProt P30542)
# Construct: expressed in transfected cells; host or cells: CHO
# Sequence (P30542 whole entry): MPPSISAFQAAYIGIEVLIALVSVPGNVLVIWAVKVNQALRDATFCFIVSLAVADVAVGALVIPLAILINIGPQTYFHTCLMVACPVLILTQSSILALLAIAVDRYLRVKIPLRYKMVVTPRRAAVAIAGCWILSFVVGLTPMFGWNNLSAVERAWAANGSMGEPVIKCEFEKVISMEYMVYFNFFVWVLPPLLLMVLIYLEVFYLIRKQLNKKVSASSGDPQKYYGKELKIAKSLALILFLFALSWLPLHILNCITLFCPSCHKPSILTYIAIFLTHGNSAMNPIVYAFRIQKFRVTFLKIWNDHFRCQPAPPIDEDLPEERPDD
# method: Human cloned A1 receptor binding, [3H]-DPCPX, CHO cells
# details: read-out: hA1 (Ki)
As a rule, pKi stands for the negative log10 of the concentration, concentration in M.

Report measured pKi; entry is Cn1cc2c(nc(NC(=O)Nc3ccc(S(=O)(=O)N4CCOCC4)cc3)n3nc(-c4ccco4)nc23)n1 6.14

Report measured pKi; entry is CCCn1cc2c(nc(NC(=O)Nc3ccc(OC)cc3)n3nc(-c4ccco4)nc23)n1 5.92

Report measured pKi; entry is CCN(CC)c1ccc(NC(=O)Nc2nc3nn(C)cc3c3nc(-c4ccco4)nn23)cc1 [Compound 101] 6.24

---

Could you please report measured rA2A/hA3 for the items listed next?
# tested-system: human recombinant A3 adenosine receptor (Homo sapiens)
# method: Human cloned A3 adenosine receptor binding assay, [125I]AB-MECA, HEK-293 membranes
# Design: USA; host or cells: HEK-293
# details: selectivity ratio of Ki values
Form field (numeric): enter value without unit.

Report measured rA2A/hA3; entry is CC(C)CCn1cc2c(nc(NC(=O)Nc3cccc(Cl)c3)n3nc(-c4ccco4)nc23)n1 15

Report measured rA2A/hA3; entry is CCn1cc2c(nc(N)n3nc(-c4ccco4)nc23)n1 0.003

Report measured rA2A/hA3; entry is COc1ccc(NC(=O)Nc2nc3nn(CCC(C)C)cc3c3nc(-c4ccco4)nn23)cc1 13

Report measured rA2A/hA3; entry is CC(C)=CCn1cc2c(nc(N)n3nc(-c4ccco4)nc23)n1 0.001

Report measured rA2A/hA3; entry is CCCCn1cc2c(nc(NC(=O)Nc3cccc(Cl)c3)n3nc(-c4ccco4)nc23)n1 664

Report measured rA2A/hA3; entry is CC(C)=CCn1cc2c(nc(NC(=O)Nc3cccc(Cl)c3)n3nc(-c4ccco4)nc23)n1 9.8

---

# tested-system: human recombinant A3 adenosine receptor (Homo sapiens, UniProt P0DMS8)
# Sequence (P0DMS8 1-318): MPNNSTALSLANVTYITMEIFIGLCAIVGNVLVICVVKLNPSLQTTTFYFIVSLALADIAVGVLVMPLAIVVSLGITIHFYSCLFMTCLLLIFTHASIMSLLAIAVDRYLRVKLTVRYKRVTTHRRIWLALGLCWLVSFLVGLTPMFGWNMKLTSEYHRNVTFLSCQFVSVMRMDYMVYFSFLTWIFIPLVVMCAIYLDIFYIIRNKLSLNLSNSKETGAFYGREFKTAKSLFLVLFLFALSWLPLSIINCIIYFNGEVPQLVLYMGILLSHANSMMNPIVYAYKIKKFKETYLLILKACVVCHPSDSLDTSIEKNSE
# method: Human cloned A3 adenosine receptor binding assay, [125I]AB-MECA, HEK-293 membranes
# Parameters: USA; host or cells: HEK-293
# details: HEK-293 membranes, [125I]AB-MECA; read-out: hA3 (Ki)
recorded-metric: pKi
As a rule, pKi stands for the negative log10 of the concentration, concentration in M.

Report measured pKi; entry is COc1ccc(NC(=O)Nc2nc3nn(CC=C(C)C)cc3c3nc(-c4ccco4)nn23)cc1 7.53

Report measured pKi; entry is CCn1cc2c(nc(NC(=O)Nc3ccc(OC)cc3)n3nc(-c4ccco4)nc23)n1 9.55

Report measured pKi; entry is CCCCn1cc2c(nc(NC(=O)Nc3ccc(OC)cc3)n3nc(-c4ccco4)nc23)n1 9.52

Report measured pKi; entry is O=C(Nc1cccc(Cl)c1)Nc1nc2nn(CCCc3ccccc3)cc2c2nc(-c3ccco3)nn12 7.37

Report measured pKi; entry is Nc1nc2nn(CCCc3ccccc3)cc2c2nc(-c3ccco3)nn12 5.57

Report measured pKi; entry is CCCn1cc2c(nc(NC(=O)Nc3cccc(Cl)c3)n3nc(-c4ccco4)nc23)n1 9.31

Report measured pKi; entry is O=C(Nc1cccc(Cl)c1)Nc1nc2nn(CCc3ccccc3)cc2c2nc(-c3ccco3)nn12 7.88

Report measured pKi; entry is COc1ccc(NC(=O)Nc2nc3nn(CCCc4ccccc4)cc3c3nc(-c4ccco4)nn23)cc1 7.70
